- Tested on: von Hippel-Lindau disease tumor suppressor/SWI/SNF-related matrix-associated actin-dependent regulator of chromatin subfamily A member 4 (Homo sapiens, UniProt P51532+P40337)
- Sequence (P51532 whole entry): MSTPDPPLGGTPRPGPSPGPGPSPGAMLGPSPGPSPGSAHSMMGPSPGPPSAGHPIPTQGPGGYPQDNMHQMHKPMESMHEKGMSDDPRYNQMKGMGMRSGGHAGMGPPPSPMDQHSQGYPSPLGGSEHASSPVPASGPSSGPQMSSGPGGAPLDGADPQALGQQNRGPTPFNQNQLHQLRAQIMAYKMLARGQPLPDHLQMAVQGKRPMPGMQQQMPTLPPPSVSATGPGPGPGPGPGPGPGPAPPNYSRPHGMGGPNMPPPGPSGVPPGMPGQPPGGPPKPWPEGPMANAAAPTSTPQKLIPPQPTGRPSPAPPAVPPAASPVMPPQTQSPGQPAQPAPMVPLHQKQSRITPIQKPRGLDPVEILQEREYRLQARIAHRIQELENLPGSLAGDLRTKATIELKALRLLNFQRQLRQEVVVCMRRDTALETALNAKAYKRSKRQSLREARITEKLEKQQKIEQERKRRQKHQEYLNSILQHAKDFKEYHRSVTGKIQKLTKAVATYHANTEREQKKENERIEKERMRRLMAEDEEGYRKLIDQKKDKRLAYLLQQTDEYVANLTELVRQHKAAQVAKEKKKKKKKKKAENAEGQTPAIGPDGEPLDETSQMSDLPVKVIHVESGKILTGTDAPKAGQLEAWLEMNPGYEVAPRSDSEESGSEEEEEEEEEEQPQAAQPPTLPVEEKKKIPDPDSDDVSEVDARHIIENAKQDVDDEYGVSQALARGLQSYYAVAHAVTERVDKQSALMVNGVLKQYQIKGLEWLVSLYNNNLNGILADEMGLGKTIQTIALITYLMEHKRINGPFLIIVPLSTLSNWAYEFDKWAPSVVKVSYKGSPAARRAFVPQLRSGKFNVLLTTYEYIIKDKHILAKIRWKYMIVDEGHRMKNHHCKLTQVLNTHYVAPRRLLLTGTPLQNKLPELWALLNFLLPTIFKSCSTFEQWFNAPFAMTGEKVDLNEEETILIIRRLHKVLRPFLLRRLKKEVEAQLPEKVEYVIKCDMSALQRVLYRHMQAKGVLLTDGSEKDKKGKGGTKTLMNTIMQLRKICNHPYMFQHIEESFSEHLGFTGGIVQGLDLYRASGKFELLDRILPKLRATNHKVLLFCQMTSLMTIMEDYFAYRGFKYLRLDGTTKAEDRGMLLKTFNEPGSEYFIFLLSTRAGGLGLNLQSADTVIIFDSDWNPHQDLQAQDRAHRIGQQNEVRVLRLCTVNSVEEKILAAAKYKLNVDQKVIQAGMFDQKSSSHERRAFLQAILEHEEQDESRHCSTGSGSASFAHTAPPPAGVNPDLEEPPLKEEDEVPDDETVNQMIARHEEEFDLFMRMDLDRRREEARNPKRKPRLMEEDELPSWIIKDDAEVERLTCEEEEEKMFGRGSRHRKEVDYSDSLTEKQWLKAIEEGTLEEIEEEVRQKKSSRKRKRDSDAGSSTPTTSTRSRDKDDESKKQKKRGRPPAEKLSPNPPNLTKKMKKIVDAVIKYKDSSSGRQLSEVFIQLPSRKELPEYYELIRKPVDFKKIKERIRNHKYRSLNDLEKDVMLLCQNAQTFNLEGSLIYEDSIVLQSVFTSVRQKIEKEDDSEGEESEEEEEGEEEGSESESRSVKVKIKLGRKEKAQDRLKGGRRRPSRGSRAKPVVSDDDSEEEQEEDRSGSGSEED
- Sequence (P40337 whole entry): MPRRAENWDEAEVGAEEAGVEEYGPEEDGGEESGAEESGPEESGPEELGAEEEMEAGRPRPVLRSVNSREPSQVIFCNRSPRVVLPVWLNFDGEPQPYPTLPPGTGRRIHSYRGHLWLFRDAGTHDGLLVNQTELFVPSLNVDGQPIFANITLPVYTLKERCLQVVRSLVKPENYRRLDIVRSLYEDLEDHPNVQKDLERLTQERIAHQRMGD
- Assay remarks: PROTAC activity at VHL/SMARCA4 in human HT-1080 cells assessed as induction of SMARCA4 degradation incubated for 24 hrs by Nano-Glo HiBiT Lytic Detection Assay
- Format: cell-based
Friendly reminder: DC50 below 10 nM is yes, at or above is no.

Could you please tell me whether DC50 recorded for Cc1ncsc1-c1ccc([C@H](C)NC(=O)[C@@H]2C[C@@H](O)CN2C(=O)[C@@H](c2cc(OCCCCN3CCC(c4ccc5c(c4)C(C)(C)c4nc(=O)c6c(Cl)cccc6n4-5)CC3)no2)C(C)C)cc1 is less than 10 nM?
no

Strictly below 10 nM: is that where DC50 of Cc1ncsc1-c1ccc([C@H](C)NC(=O)[C@@H]2C[C@@H](O)CN2C(=O)[C@@H](c2cc(OCC(C)CN3CCC(c4ccc5c(c4)-n4c(nc(=O)c6c(Cl)cccc64)C5(C)C)CC3)no2)C(C)C)cc1 (some centres undefined) sits?
no

Below 10 nM on DC50? Entry Cc1ncsc1-c1ccc([C@H](C)NC(=O)[C@@H]2C[C@@H](O)CN2C(=O)[C@@H](c2cc(OCCCN3CCC(c4ccc5c(c4)C(C)(C)c4nc(=O)c6c(Cl)cccc6n4-5)CC3)no2)C(C)C)cc1
no

# strict comparison: is reported DC50 < 10 nM? input = Cc1ncsc1-c1ccc([C@H](C)NC(=O)[C@@H]2C[C@@H](O)CN2C(=O)[C@@H](c2cc(OC3CCC(N4CCC(c5ccc6c(c5)C(C)(C)c5nc(=O)c7c(Cl)cccc7n5-6)CC4)CC3)no2)C(C)C)cc1 (some centres undefined)
yes

Dear reviewer, please state whether Cc1ncsc1-c1ccc([C@H](C)NC(=O)[C@@H]2C[C@@H](O)CN2C(=O)[C@@H](c2cc(OCCN3CCC(c4ccc5c(c4)C(C)(C)c4nc(=O)c6c(Cl)cccc6n4-5)CC3)no2)C(C)C)cc1 has DC50 strictly beneath 10 nM.
no

# check: DC50 < 10 nM for Cc1ncsc1-c1ccc([C@H](C)NC(=O)[C@@H]2C[C@@H](O)CN2C(=O)[C@@H](NC(=O)[C@H]2CC[C@H](CN3CCC(c4ccc5c(c4)-n4c(nc(=O)c6c(Br)cccc64)C5(C)C)CC3)CC2)C(C)(C)C)cc1
no

Hello, is DC50 of the following molecule strictly smaller than 10 nM? Cc1ncsc1-c1ccc([C@H](C)NC(=O)[C@@H]2C[C@@H](O)CN2C(=O)[C@@H](n2cc([C@H]3CC[C@H](CN4CCC(c5ccc6c(c5)-n5c(nc(=O)c7c(Cl)cccc75)C6(C)C)CC4)CC3)nn2)C(C)(C)C)cc1
no

Is DC50 strictly under 10 nM for the entry Cc1ncsc1-c1ccc([C@H](C)NC(=O)[C@@H]2C[C@@H](O)CN2C(=O)[C@H](C(C)C)n2cc([C@H]3CC[C@H](CN4CCC(c5ccc6c(c5)C(C)(C)c5nc(=O)c7c(Cl)cccc7n5-6)CC4)CC3)nn2)cc1 ?
yes

Lab log: compare recorded DC50 with 10 nM; is it strictly lower for Cc1ncsc1-c1ccc([C@H](C)NC(=O)[C@@H]2C[C@@H](O)CN2C(=O)[C@@H](NC(=O)[C@H]2CC[C@H](CN3CCC(c4ccc5c(c4)-n4c(nc(=O)c6c(Cl)cccc64)C5(C)C)CC3)CC2)C(C)(C)C)cc1 ?
no

Does the reported DC50 of the following molecule sit strictly below 10 nM? Cc1ncsc1-c1ccc([C@H](C)NC(=O)[C@@H]2C[C@@H](O)CN2C(=O)[C@@H](c2cc(N3CCC(CN4CCC(c5cccc6c5C(C)(C)c5nc(=O)c7c(Cl)cccc7n5-6)CC4)CC3)no2)C(C)C)cc1
no

Dear colleague, could you confirm whether DC50 of Cc1ncsc1-c1ccc([C@H](C)NC(=O)[C@@H]2C[C@@H](O)CN2C(=O)[C@@H](c2cc(N3CCC(CN4CCC(c5ccc6c(c5)C(C)(C)c5nc(=O)c7c(Cl)cccc7n5-6)CC4)CC3)no2)C(C)C)cc1 falls below 10 nM? Thanks.
yes

Field: below-cutoff. Rule: recorded DC50 strictly less than 10 nM. Subject: Cc1ncsc1-c1ccc([C@H](C)NC(=O)[C@@H]2C[C@@H](O)CN2C(=O)[C@@H](n2cc([C@H]3CC[C@H](CN4CCC(c5ccc6c(c5)C(C)(C)c5nc(=O)c7c(Cl)cccc7n5-6)CC4)CC3)nn2)C(C)(C)C)cc1
no

State whether 10 nM exceeds DC50 recorded for Cc1ncsc1-c1ccc([C@H](C)NC(=O)[C@@H]2C[C@@H](O)CN2C(=O)[C@@H](c2cc(N3CCC(CN4CCC(c5ccc6c(c5)-n5c(nc(=O)c7c(Cl)cccc75)C6(C)C)CC4)CC3)no2)C(C)C)cc1 .
no

Hello, I'm reviewing records and need to know if DC50 of Cc1ncsc1-c1ccc([C@H](C)NC(=O)[C@@H]2C[C@@H](O)CN2C(=O)[C@@H](c2cc(OCC3(CN4CCC(c5ccc6c(c5)C(C)(C)c5nc(=O)c7c(Cl)cccc7n5-6)CC4)CC3)no2)C(C)C)cc1 is below 10 nM. Could you check?
no
